Target or system DOT1L (Homo sapiens (Human)): recorded pIC50 listed per item.
Numbers only, as −log10 of the molar value.

Form field pIC50 for item `CC(C)N(C[C@H]1O[C@@H](n2cnc3c(N)ncnc32)[C@H](O)[C@@H]1O)[C@H]1C[C@@H](CCc2nc3cc(Cl)c(C(F)(F)F)cc3[nH]2)C1` on DOT1L (Homo sapiens (Human)): 9.23

Form field pIC50 for item `CC(C)N(C[C@H]1O[C@@H](n2ccc3c(N)ncnc32)[C@H](O)[C@@H]1O)[C@H]1C[C@@H](CCc2nc3cc(OC(F)(F)F)ccc3[nH]2)C1` on DOT1L (Homo sapiens (Human)): 9.10

Form field pIC50 for item `CN(C[C@H]1O[C@@H](n2ccc3c(N)ncnc32)[C@H](O)[C@@H]1O)[C@H]1C[C@@H](CCc2nc3cc(C(C)(C)C)ccc3[nH]2)C1` on DOT1L (Homo sapiens (Human)): 9.21

Here is the next item to consider.
Form field pIC50 for item `CC(C)N(C[C@H]1O[C@@H](n2ccc3c(N)ncnc32)[C@H](O)[C@@H]1O)[C@H]1C[C@H](CCc2nc3cc(C(C)(C)C)ccc3[nH]2)C1` on DOT1L (Homo sapiens (Human)): 9.23
